Reference source for all entries: paper PMC10654507

# PROTOCOL_TEXT: in vitro
# Format: in vitro ADME
# ASSAY_CONDITIONS: Supplementary Fig. 2b source data; human serum; 2 h; RP-HPLC; mean; read-out: remaining rate in human serum
Residues, ends and D or L forms follow the SMILES beside them.
MEASURED_ENDPOINT: remaining at 2 h, 0.5 mM (%)
A number alone suffices; assume %.

// returns reported remaining at 2 h, 0.5 mM for input CSCC[C@H](NC(=O)[C@H](CCCNC(=N)N)NC(=O)[C@H](Cc1c[nH]c2ccccc12)NC(=O)[C@H](C)NC(=O)[C@H](Cc1c[nH]c2ccccc12)NC(=O)[C@H](CCCNC(=N)N)NC(=O)[C@H](Cc1c[nH]c2ccccc12)NC(=O)[C@H](C)NC(=O)[C@H](CCCCN)NC(=O)[C@@H](N)Cc1ccccc1)C(=O)N[C@@H](CCCCN)C(=O)N[C@@H](CCCCN)C(=O)N[C@@H](CC(C)C)C(=O)N[C@@H](C)C(=O)N[C@@H](C)C(=O)N1CCC[C@H]1C(=O)N[C@@H](CO)C(=O)O [L7] (H-FKAWRWAWRMKKLAAPS-OH)
32

====

# PROTOCOL_TEXT: Serum stability in mouse serum (RP-HPLC)
# Assay type: in vitro ADME
# ASSAY_CONDITIONS: 25% mouse serum, peptide 0.5 mM, 4 h, mean of three, read-out: remaining rate in mouse serum
Residues, ends and D or L forms follow the SMILES beside them.
MEASURED_ENDPOINT: remaining at 4 h, 0.5 mM (%)
A number alone suffices; assume %.

// returns reported remaining at 4 h, 0.5 mM for input CSCC[C@H](NC(=O)[C@H](CCCNC(=N)N)NC(=O)[C@H](Cc1c[nH]c2ccccc12)NC(=O)[C@H](C)NC(=O)[C@H](Cc1c[nH]c2ccccc12)NC(=O)[C@H](CCCNC(=N)N)NC(=O)[C@H](Cc1c[nH]c2ccccc12)NC(=O)[C@H](C)NC(=O)[C@H](CCCCN)NC(=O)[C@@H](N)Cc1ccccc1)C(=O)N[C@@H](CCCCN)C(=O)N[C@@H](CCCCN)C(=O)N[C@@H](CC(C)C)C(=O)N[C@@H](C)C(=O)N[C@@H](C)C(=O)N1CCC[C@H]1C(=O)N[C@@H](CO)C(=O)O [L7] (H-FKAWRWAWRMKKLAAPS-OH)
6.01

====

# PROTOCOL_TEXT: in vitro
# Format: in vitro ADME
# ASSAY_CONDITIONS: Supplementary Fig. 2b source data; human serum; 0.5 h; RP-HPLC; mean; read-out: remaining rate in human serum
Residues, ends and D or L forms follow the SMILES beside them.
MEASURED_ENDPOINT: remaining at 0.5 h, 0.5 mM
I'd appreciate it if you included the unit after the number.

// returns reported remaining at 0.5 h, 0.5 mM for input CSCC[C@H](NC(=O)[C@H](CCCNC(=N)N)NC(=O)[C@H](Cc1c[nH]c2ccccc12)NC(=O)[C@H](C)NC(=O)[C@H](Cc1c[nH]c2ccccc12)NC(=O)[C@H](CCCNC(=N)N)NC(=O)[C@H](Cc1c[nH]c2ccccc12)NC(=O)[C@H](C)NC(=O)[C@H](CCCCN)NC(=O)[C@@H](N)Cc1ccccc1)C(=O)N[C@@H](CCCCN)C(=O)N[C@@H](CCCCN)C(=O)N[C@@H](CC(C)C)C(=O)N[C@@H](C)C(=O)N[C@@H](C)C(=O)N1CCC[C@H]1C(=O)N[C@@H](CO)C(=O)O [L7] (H-FKAWRWAWRMKKLAAPS-OH)
86.9%
